// HDM2 (Homo sapiens) IC50 records
Bridge positions count the residues as written; N and C are the ends. Square brackets hold non-standard residues; d marks the D form. Peptide text beside a SMILES is read from it. * marks the point of attachment. R8 = C=CCCCCCC[C@@](C)(N)C(=O)O; S5 = C=CCCC[C@](C)(N)C(=O)O; X1 = COCCOCCOCCOC(=O)*
Lab book: enter the figure in nM, no units written.

>  <Compound>
COCCOCCOCCOC(=O)N[C@@H](CC(C)C)C(=O)N[C@H](C(=O)N[C@@H](Cc1ccccc1)C(=O)N[C@]1(C)CCCCCCC=CCCC[C@@](C)(C(=O)N[C@@H](CO)C(N)=O)NC(=O)[C@H](CC(C)C)NC(=O)[C@H](CCC(N)=O)NC(=O)[C@H](C)NC(=O)[C@H](Cc2c[nH]c3ccccc23)NC(=O)[C@H](Cc2ccc(O)cc2)NC(=O)[C@H](C)NC1=O)[C@@H](C)O [SP-580, mdPEG3-L T F $r8 A Y W A Q L $ S -NH2] (X1-LTF[R8]AYWAQL[S5]S-NH2; staple 4-11)

>  <Test target>
HDM2 (Homo sapiens)
Sequence (Q00987 whole entry, looked up): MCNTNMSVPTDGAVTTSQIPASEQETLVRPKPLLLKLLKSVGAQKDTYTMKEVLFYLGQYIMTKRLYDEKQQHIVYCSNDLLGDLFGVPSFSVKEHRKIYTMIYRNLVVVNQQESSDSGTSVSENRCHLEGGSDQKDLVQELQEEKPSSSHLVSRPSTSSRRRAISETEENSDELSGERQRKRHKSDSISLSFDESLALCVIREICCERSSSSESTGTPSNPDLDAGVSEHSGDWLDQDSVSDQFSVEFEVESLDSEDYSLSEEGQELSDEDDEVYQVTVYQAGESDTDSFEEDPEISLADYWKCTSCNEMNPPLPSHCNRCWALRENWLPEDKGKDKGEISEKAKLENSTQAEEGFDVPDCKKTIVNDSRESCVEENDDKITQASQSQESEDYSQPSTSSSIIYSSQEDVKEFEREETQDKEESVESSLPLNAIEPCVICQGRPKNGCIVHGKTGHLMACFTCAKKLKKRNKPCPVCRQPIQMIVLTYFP

>  <Uom>
nM

>  <IC50>
81

$$$$

Known value: HDM2 (Homo sapiens) IC50 of the compound CC(=O)N[C@@H](Cc1c[nH]c2ccccc12)C(=O)N[C@H](C(=O)N[C@@H](Cc1ccccc1)C(=O)N[C@]1(C)CCCCCCC=CCCC[C@@](C)(C(=O)N[C@@H](CO)C(N)=O)NC(=O)[C@H](CC(C)C)NC(=O)[C@H](CCC(N)=O)NC(=O)[C@H](C)NC(=O)[C@H](Cc2c[nH]c3ccccc23)NC(=O)[C@H](Cc2ccc(O)cc2)NC(=O)[C@H](Cc2c[nH]cn2)NC1=O)[C@@H](C)O [SP-256, Ac- W T F $r8 H Y W A Q L $ S -NH2] (Ac-WTF[R8]HYWAQL[S5]S-NH2; staple 4-11) equals 185
